ASSAY_METHOD_TEXT: inhibitors of TNFa-induced NFkB p65 translocation, primary screen, imaging, HUVEC, MLSMR starter and 10KST1 sets (AID 438);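 also: compound added about 3h40 before a 20 min TNFalpha stimulation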
PARTICULARS: HUVEC TNFa-induced p65 nuclear translocation; measured here: nuclei count (cytotoxicity indicator), at 2.08 µM
Threshold rule: cell count greater than or equal to 500 is Satisfied; below that, Not satisfied.

O=C(c1cc2ccccc2oc1=O)N1CCSC1c1ccco1 (stereo not given) | Not satisfied
CC(C)CCNC(=O)NC(=O)CSc1nnc(-c2ccccc2Br)o1 | Satisfied

# check: cell count of COc1ccc(-c2noc(COc3ccc4ccccc4c3Br)n2)cc1OC is greater than or equal to 500 Satisfied

# check: cell count of Cc1ccccc1C(=O)NC1CCN(CC(=O)Nc2nccs2)CC1 is greater than or equal to 500 Satisfied

# check: cell count of CCOC(=O)CC(NS(=O)(=O)c1ccc(NC(C)=O)cc1)c1ccc(OCC)cc1 (stereo not given) is greater than or equal to 500 Not satisfied

# check: cell count of CCn1nnc(-c2ccccc2NC(=O)c2ccc(-n3cnnn3)cc2)n1 is greater than or equal to 500 Not satisfied

# check: cell count of Cc1ccc(-n2nnnc2SCC(=O)N2CCc3ccccc3C2)cc1 is greater than or equal to 500 Satisfied

# check: cell count of O=C1CCC(=O)N1OCCCCOc1ccccc1 is greater than or equal to 500 Satisfied
